- MEASURED TARGET: Gal 4-Mouse PPAR-γ LBD (Mus musculus)
- Construct: 5 μg Gal 4-Mouse PPAR-γ LBD; expressed in transfected cells; host or cells: HEK-293T
- Sequence (P37238 238-503 limits assumed): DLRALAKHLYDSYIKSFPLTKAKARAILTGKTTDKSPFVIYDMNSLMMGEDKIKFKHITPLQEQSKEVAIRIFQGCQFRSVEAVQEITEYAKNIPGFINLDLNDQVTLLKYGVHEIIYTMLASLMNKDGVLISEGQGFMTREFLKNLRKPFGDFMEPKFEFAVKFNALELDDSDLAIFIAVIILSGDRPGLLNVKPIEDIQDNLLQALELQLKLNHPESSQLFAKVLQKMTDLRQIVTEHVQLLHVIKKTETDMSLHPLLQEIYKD
- ASSAY OVERVIEW: PPAR-γ reporter gene (transactivation) assay in HEK-293T cells with serum or serum proteins
- Format: cell-based
- TEST SETTINGS: 10% (v/v) human serum (Figure 2), 3 experiments, mean ± SD; read-out: EC50 PPAR-γ activation
MEASURED ATTRIBUTE: pEC50
In simple prose, pEC50 is minus the logarithm base ten of a concentration in moles per litre.

[Q] Could you share which pEC50 value was measured for O=C(O)[C@H](Oc1cccc(C(F)(F)F)c1)c1ccc(Cl)cc1 (stereo in doubt) [MBX-102 acid] ?
[A] 3.54
